self-aminoacylation for assorted sequences
- Test system: biotinyl-Met-oxazolone
- EXPERIMENT: self-aminoacylation, catalytic enhancement (BMO) (fold over background); higher = more active; k-Seq, kA / k0A0; sequences stand for … in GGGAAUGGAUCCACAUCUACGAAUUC…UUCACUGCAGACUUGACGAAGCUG
Fewer inactive variants are shown than the library holds.
READOUT NAME: self-aminoacylation

SEQUENCE CHAIN	OBSERVED RESULT
AUUACUCUGGUCAACGAGUGA [Fam2.1 aminoacylation ribozyme variant]	5
AUUACCCUGGGCAUUGAGUGA [Fam2.1 aminoacylation ribozyme variant]	9.32
AUUACCCUGGUUAUCGAGUGU [Fam2.1 aminoacylation ribozyme variant]	2.66
CUACUUCAAACAAUCGUUCUA [Fam1A.1 aminoacylation ribozyme variant]	0.545
CCACACUGCAAGCAAUCGGCC [Fam1B.1 aminoacylation ribozyme variant]	2.93
AUUAACCUGGUCAUCGUGUGA [Fam2.1 aminoacylation ribozyme variant]	3.13
AUGUUUGCUAACAGUCGCAAG [Fam3.1 aminoacylation ribozyme variant]	1.61
ACUACCCUGGUCAUCGGGUGA [Fam2.1 aminoacylation ribozyme variant]	48
AUUCACCCAGGUCAUCGGGUG [Fam2.2 aminoacylation ribozyme variant]	4.83
